# target: Pfs230 C1 (Plasmodium falciparum 3D7 (clone of …, UniProt P68874))
# Sequence (P68874 443-731): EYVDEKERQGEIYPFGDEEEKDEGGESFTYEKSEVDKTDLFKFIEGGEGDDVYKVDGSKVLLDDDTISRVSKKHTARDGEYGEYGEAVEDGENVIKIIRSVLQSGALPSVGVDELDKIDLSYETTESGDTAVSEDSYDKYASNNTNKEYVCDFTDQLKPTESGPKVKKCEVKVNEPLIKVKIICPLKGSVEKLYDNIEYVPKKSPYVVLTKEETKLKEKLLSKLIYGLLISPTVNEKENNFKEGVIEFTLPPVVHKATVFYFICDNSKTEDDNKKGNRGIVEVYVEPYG
# experimental.details: ELISA
# measurement.context: both partners purified
measure.name: binding result

1. RUPA-55 (antibody, V domains shown, also called RUPA-55 (IgG1)) VH: DVQLVESGGGLVKPGGSLRLSCAASGFTFNSYTMNWVRQAPGKGLEWVSSISTNIRYIYYADSVKGRFTISRDNAKNSLFLQMDSLRAEDTAVYYCATIAGPLSLKGDFFFDSWGQGTLVTVSP VL: EIVMTQSPATLSVSPGERATLSCRASQSVSSSLAWYQQKPGQAPRLLIHGASTRATGIPTRFSGSGSGTEFTLTISSLQSEDFAVYYCQQYANWPPWTFGQGTKVESK = binds
2. RUPA-32 (antibody, V domains shown, also called RUPA-32 (IgG1)) VH: EVQLVESGGGLVKPGGSLRLSCAASGFAFSTYAMSWVRQAPGKGLEWVSSISESSSYTYYTDSVKGRFTISRDNAKKSLFLHMNSLRAEDTAVYYCARSDGLSMIAAPFDYWGQGARVTVSS VL: EIVLTQSPATLSLSPGERATLSCRTSQSLSISLVWYQQKPGQAPRLLISDASNRAPGIPARFSASGSGTDFTLTISSLEPEDFAVYYCQQRSNWPPITFGQGTRLEMK = binds
